Assembled from different publications: pIC50 for hCRTH2 receptor (Homo sapiens (Human)).
pIC50: −log10 of the molar value.

Below: 5 compounds and their reported pIC50.
CCN(Cc1cc(C(F)(F)F)ccc1-c1cc(CC(=O)O)ccc1OC)C(=O)Nc1ccccc1Br
> 6.52
COc1ccc(CC(=O)O)cc1Oc1ccc(NC(=O)Cc2ccccc2)cc1CN1CCOC1=O
> 6.52
CC(=O)N(c1ccccc1)[C@H]1C[C@@H](C)N(C(=O)c2ccccc2)c2ccccc21
> 7.40
COc1ccc(CC(=O)O)cc1-c1ccc(C(F)(F)F)cc1CN(C(C)=O)[C@@H]1CCc2ccccc21
6.00 to 6.52
COc1ccc(CC(=O)O)cc1Oc1ccc(NC(=O)C(C)C)cc1CN1CCOC1=O
> 6.52

// input: 3 compounds below; output: pIC50 for each
1. O=C(O)Cc1cc(Cl)cc(Oc2ccc(Br)cc2CN2CCOC2=O)c1
2. Cc1ccc(S(=O)(=O)Nc2cc(C(F)(F)F)ccc2Oc2ccc(CC(=O)O)cc2)cc1
3. COc1ccc(CC(=O)O)cc1Oc1ccc(NC(=O)c2ccc(Cl)cc2)cc1CN1CCOC1=O

> 6.52
4.82 to 6.00
> 6.52

* * *

// molecules with reported IC50 on hCRTH2 receptor (Homo sapiens (Human), UniProt Q9Y5Y4), multi-publication
Sequence (Q9Y5Y4 whole entry): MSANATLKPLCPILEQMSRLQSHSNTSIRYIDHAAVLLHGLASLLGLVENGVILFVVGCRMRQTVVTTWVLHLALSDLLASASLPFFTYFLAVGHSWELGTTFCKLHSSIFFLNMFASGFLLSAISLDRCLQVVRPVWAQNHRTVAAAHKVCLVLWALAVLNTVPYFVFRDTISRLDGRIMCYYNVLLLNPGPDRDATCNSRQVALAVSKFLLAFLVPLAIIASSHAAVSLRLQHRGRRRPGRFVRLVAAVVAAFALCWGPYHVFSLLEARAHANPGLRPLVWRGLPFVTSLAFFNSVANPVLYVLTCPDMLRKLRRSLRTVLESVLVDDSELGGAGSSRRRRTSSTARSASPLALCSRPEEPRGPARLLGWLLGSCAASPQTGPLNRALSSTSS

CC(CC(=O)N1CCc2c(F)ccc(-c3cc(CC(=O)O)ccc3OCC(F)(F)F)c2C1)c1ccccn1 (racemic)
8.1 nM
CCC(=O)N(Cc1ccc2c(c1)OC(F)(F)O2)c1cc(Cl)cc(-c2nnn[nH]2)c1
13 nM
COc1ccc(CC(=O)O)cc1Oc1ccc(S(C)(=O)=O)cc1CN1C(=O)O[C@H](c2ccccc2)[C@@H]1C
300 to 1000 nM
COC(=O)N(Cc1ccccc1)Cc1cc(C(F)(F)F)ccc1-c1cc(CC(=O)O)ccc1OC
< 300 nM
CCCC(=O)N(Cc1ccc2c(c1)OCCO2)c1cc(-c2nnn[nH]2)ccc1F
6.3 nM

Could I get IC50 for every one of these entries?
1. CCN(Cc1cc(C(F)(F)F)ccc1-c1cc(Cl)cc(CC(=O)O)c1)C(=O)OCc1ccc(Cl)cc1
2. CCNC(=O)c1ccc(Oc2cc(CC(=O)O)ccc2OC)c(CN2C(=O)O[C@@H](c3ccccc3)[C@H]2C)c1
3. CCN(Cc1cc(C(F)(F)F)ccc1-c1cc(CC(=O)O)ccc1OC)/C(=N/C#N)NCc1ccccc1
4. CCN(C(C)=O)C(C)c1cc(C(F)(F)F)ccc1-c1cc(CC(=O)O)ccc1OC (stereo not shown)

1. < 300 nM
2. < 300 nM
3. < 300 nM
4. 1000 to 30000 nM

Take each entry in turn and give its IC50.
1. CCN(Cc1cc(C(F)(F)F)ccc1-c1cc([C@H](C)C(=O)N[C@H](C)Cc2ccccc2)cc(C(F)(F)F)c1)C(=O)NCc1ccccc1
2. COc1cc(CC(=O)O)ccc1Oc1ccc2[nH]c(C)cc2c1NS(=O)(=O)c1ccc(Cl)cc1Cl
3. COc1ccc(CC(=O)O)cc1-c1ccc(F)c2c1CN(C(=O)OCc1csc(C)n1)CC2
4. CCOc1ccc(CC(=O)O)cc1Oc1ccc(C(F)(F)F)cc1CN1C(=O)O[C@@H](c2ccccc2)[C@H]1C

["< 300 nM", "10 to 100 nM", "7.12 nM", "< 300 nM"]

* * *

pIC50: −log10 of the molar value.
Here is a set of compounds with reported pIC50 for hCRTH2 receptor (Homo sapiens (Human), UniProt Q9Y5Y4), compiled from the literature.

# annotated cases, reported pIC50 shown
CCN(Cc1cc(C(F)(F)F)ccc1-c1cc(C(C)(C)C(=O)O)ccc1OC)C(C)=O
< 4.52
CCN(Cc1cc(C(F)(F)F)ccc1-c1cc(CC(=O)O)ccc1OCc1ccccc1)C(=O)OCc1ccccc1
> 6.52
O=C(O)Cc1ccc(Oc2ccc(C(F)(F)F)cc2NC(=O)c2ccccc2)cc1
4.82 to 6.00
CCN(Cc1cc(C(F)(F)F)ccc1-c1cc(CC(=O)O)ccc1OC)C(=O)C(C)(C)C
4.52 to 6.00

Please report pIC50 for every entry that follows.
1. CCN(Cc1cc(C(F)(F)F)ccc1-c1cc(CC(=O)O)ccc1OC)C(=O)c1ccccc1
2. COc1ccc(CC(=O)O)cc1-c1ccc(C(F)(F)F)c2c1CN(C(=O)C1CC1)CC2
3. CCCC#Cc1cccc(CN(C(=O)CC)c2cccc(-c3nnn[nH]3)c2)c1
4. CCN(Cc1cc(C(F)(F)F)ccc1-c1cc(C(C)C(=O)O)ccc1OC)C(C)=O (stereo not drawn)
5. COc1ccc(CC(=O)O)cc1-c1ccc(F)c2c1CN(C(=O)CC1OCCc3ccccc31)CC2 (racemic)

> 6.52
6.60
6.21
> 6.52
8.66

* * *

Literature-derived pIC50 for hCRTH2 receptor (Homo sapiens (Human), UniProt Q9Y5Y4) follows.
pIC50: −log10 of the molar value.

C[C@H]1[C@@H](c2ccccc2)OC(=O)N1Cc1cc(-c2nccn2C)ccc1Oc1cccc(CC(=O)O)c1
6.00 to 6.52
COc1ccc(CC(=O)O)cc1Oc1ccc(-c2cnn(C)c2)cc1CN1C(=O)O[C@H](c2ccccc2)[C@@H]1C
> 6.52
CCN(Cc1cc(C(F)(F)F)ccc1-c1cc(CC(C)(C)O)ccc1OC)C(C)=O
4.52 to 6.00

Would you mind giving pIC50 for every compound in the list below?
1. CCOc1ccc(CC(=O)O)cc1-c1ccc(F)c2c1CN(C(=O)CC1(c3cccc(F)c3)CC1)CC2
2. C[C@H]1[C@@H](c2ccccc2)OC(=O)N1Cc1cc(Br)ccc1Oc1cc(CC(=O)O)cc(C(F)(F)F)c1

1: 8.17; 2: > 6.52
